Where do the numbers come from? From patent US5459152A.

- assay system: PAF receptor (Oryctolagus cuniculus)
- Construct: platelet membranes where prepared by centrifugation and washing; tissue Pel-Freez (Rogers, AR) (whole rabbit blood); host or cells: rabbit platelet membranes
- Sequence (G1TEI7 1-342): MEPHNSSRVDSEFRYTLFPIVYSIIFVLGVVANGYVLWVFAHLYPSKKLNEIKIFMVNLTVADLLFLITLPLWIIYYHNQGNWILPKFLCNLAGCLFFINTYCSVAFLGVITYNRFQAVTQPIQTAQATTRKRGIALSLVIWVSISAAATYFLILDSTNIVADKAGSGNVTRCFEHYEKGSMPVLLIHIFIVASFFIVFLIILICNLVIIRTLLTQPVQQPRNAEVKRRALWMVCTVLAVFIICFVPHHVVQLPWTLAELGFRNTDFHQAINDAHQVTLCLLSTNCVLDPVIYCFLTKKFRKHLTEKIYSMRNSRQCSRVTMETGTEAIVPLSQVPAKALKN
- protocol details: PAF receptor binding assay ([3H]C18-PAF, rabbit platelet membranes)
- measurement context: read-out: PAF Receptor Binding Activity K1
Here the recorded pKi is given for each entry.
Worth noting: pKi values are minus log10 of concentrations stated in mol/L.

Examples with answers:
O=C(c1ccn2c1CSC2c1cccnc1)c1cn(S(=O)(=O)c2ccccc2)c2cc(-c3ccc(F)cc3)ccc12 (stereo not shown) [Example 61]    5.96
NNC(=O)n1cc(C(=O)c2ccn3c2CSC3c2cccnc2)c2ccc(-c3ccc(F)cc3)cc21 (stereo not shown) [Example 69]    7.60
COc1ccc(-c2ccc3c(C(=O)c4ccn5c4C(C)(C)SC5c4cccnc4)cn(C(=O)N(C)C)c3c2)cc1 (stereo not shown) [Example 26]    7.26

Attention now shifts to the item below.
Lookup result for CN(C)C(=O)n1cc(C(=O)c2ccn3c2CSC3c2cccnc2)c2ccc(Cl)cc21 (stereo not shown) [Example 65] ; measured pKi: 7.05

====

The following molecules are shown together with reported log10 of Ki values.
- assay system: PAF receptor (Oryctolagus cuniculus)
- Construct: platelet membranes where prepared by centrifugation and washing; tissue Pel-Freez (Rogers, AR) (whole rabbit blood); host or cells: rabbit platelet membranes
- protocol details: PAF receptor binding assay ([3H]C18-PAF, rabbit platelet membranes)
- measurement context: read-out: PAF Receptor Binding Activity K1
Parameter value (number): base-10 log of Ki in nM.

CN(C)C(=O)n1cc(C(=O)c2ccn3c2CSC3c2cccnc2)c2ccc(-c3ccc(C(=O)NN)cc3)cc21 (stereo not shown)    1.30
CN(C)C(=O)n1cc(C(=O)c2ccn3c2C(C)(C)SC3c2cccnc2)c2ccccc21 (stereo not shown)    2.00
CNC(=O)n1cc(C(=O)c2ccn3c2CSC3c2cccnc2)c2ccc(-c3ccc(OC)cc3)cc21 (stereo not shown)    1.41

So, CN(C)C(=O)n1cc(C(=O)c2ccn3c2C(C)(C)SC3c2cccnc2)c2ccc(-c3ccccc3)cc21 (stereo not shown) ? Its log10 of Ki was 1.71

Input CC(C)(C)OC(=O)n1cc(C(=O)c2ccn3c2CSC3c2cccnc2)c2ccccc21 (stereo not shown) . Output log10 of Ki: 2.04

What the record says about NC(=O)Cn1cc(C(=O)c2ccn3c2CSC3c2cccnc2)c2ccc(-c3ccc(F)cc3)cc21 (stereo not shown) : log10 of Ki is 1.00

Field log10 of Ki (entry COc1cc(-c2ccc3c(C(=O)c4ccn5c4CSC5c4cccnc4)cn(C(=O)N(C)C)c3c2)cc(OC)c1OC (stereo not shown) ) reads 0.90

====

Measured Ki, listed per entry.
- assay system: PAF receptor (Oryctolagus cuniculus)
- Construct: platelet membranes where prepared by centrifugation and washing; tissue Pel-Freez (Rogers, AR) (whole rabbit blood); host or cells: rabbit platelet membranes
- protocol details: PAF receptor binding assay ([3H]C18-PAF, rabbit platelet membranes)
- measurement context: read-out: PAF Receptor Binding Activity K1
Express your answer in nM, writing the number without its unit.

Look over these answered cases.
CNC(=O)n1cc(C(=O)c2ccn3c2CSC3c2cccnc2)c2ccc(OCc3ccccc3)cc21 (stereo not shown)    9
CN(C)C(=O)n1cc(C(=O)c2ccn3c2CSC3c2ccc[n+](C)c2)c2ccc(-c3ccccc3)cc21 (stereo not shown)    2800
NC(=O)n1cc(C(=O)c2ccn3c2CSC3c2cccnc2)c2ccc(OCc3ccccc3)cc21 (stereo not shown)    10

// moving on: another record for Ki
Record summary for CN(C)C(=O)n1cc(C(=O)c2ccn3c2CSC3c2ccc[n+]([O-])c2)c2ccccc21 (stereo not shown) : reported Ki = 40
